All figures here come from PubChem BioAssay AID651821.

assay.comment: binders of r(CAG) RNA repeats, primary screen, biochemical, fluorescence (AID 651821);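 also: 0% = DMSO alone and 100% = 100 µM mitoxantrone as full dye displacement; higher means more dye released from RNA so lower well fluorescence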
settings: r(CAG) RNA repeat, TO-PRO-1 dye displacement fluorescence; at 3 µM; stronger effect = higher value
Screen size: about 370,000 compounds; about 4,700 (1.3%) were called active. This is one part of a sample in which actives are shown more often than they occur.
reported.metric: inhibition (%)
Hi! Could you send only the number? It should be in %, unit omitted.

For reference, reported inhibition for `COc1cc(/C=C/C(=O)OCC(=O)Nc2cccc(Oc3ccccc3)c2)ccc1O` stands at 15.1

For reference, reported inhibition for `CCC(=O)Nc1ccc2c(c1)C(=O)N(C)[C@H]1CC[C@H](CC(=O)NCCOC)O[C@@H]1CO2` stands at -0.44

For reference, reported inhibition for COc1ccc(C2=CN(Cc3ccccc3)C(c3ccc(OC)cc3)CC2=O)cc1 (centres undefined) stands at 2.54

For reference, reported inhibition for `COCc1nnc(NC(=O)CS(=O)(=O)Cc2ccccc2)s1` stands at 4.38

For reference, reported inhibition for `Cc1ccccc1C(=O)N[C@H](C(=O)N1CCC[C@H]1C(=O)NCc1ccccc1)C(C)C` stands at 0.37

For reference, reported inhibition for `COC(=O)[C@]12C[C@H](CC(=O)N3CCN(C(=O)C4CC4)CC3)C(=O)N(Cc3ccc4c(c3)OCO4)C1=C[C@H](C(C)(C)C)O[C@@H]2C` stands at 1.7

For reference, reported inhibition for `Cc1ccc(C(=O)C2CCN(CC(=O)NCCC(C)C)CC2)cc1` stands at -4.12

For reference, reported inhibition for Nc1ncnc2c1ncn2C1OC(CO)CC1O (centres undefined) stands at 0.74

For reference, reported inhibition for `COC(=O)[C@]12C[C@H](CC(=O)NCc3ccccc3)C(=O)N(CCC3=CCCCC3)C1=C[C@H](C(C)(C)C)O[C@@H]2C` stands at 1.7
